- System: PIP5K2B;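 further: KINOMEscan kinase panel screen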
- Condition Details: concentration: 1 μM, replicates: in singlicate; n = 1
Exercise: state measured %Inh for each of the molecules provided.
Could you give me the number in %? Just the number is fine.

Consider COc1ccc(Nc2nccc(N3CCC(NC(=O)C(C)c4ccc(Cl)cc4)CC3)n2)cc1 (centres unmarked) . Its measured %Inh is 63

Consider Cc1ccc(NC(=O)Nc2ccc(Cl)cc2)cc1-c1ccc(C(=O)Nc2ccncc2)cc1 . Its measured %Inh is 12

Consider CNc1cc(-c2ccc3c(N)n[nH]c3c2)nc(N)n1 . Its measured %Inh is 5

Consider NS(=O)(=O)c1cccc(N/C=C2\C(=O)Nc3ccc(S(=O)(=O)Cc4c(Cl)cccc4Cl)cc32)c1 . Its measured %Inh is 0

Consider Cn1cncc1-c1cc2c(Nc3ccc(OCc4ccccc4)cc3)ncnc2cn1 . Its measured %Inh is 0

Reference source: paper PMC5540273
